# credit: ChEMBL document CHEMBL2384988

test_system: Phosphatidylinositol 4,5-bisphosphate 3-kinase catalytic subunit alpha isoform (Homo sapiens)
Sequence (P42336 whole entry, canonical isoform): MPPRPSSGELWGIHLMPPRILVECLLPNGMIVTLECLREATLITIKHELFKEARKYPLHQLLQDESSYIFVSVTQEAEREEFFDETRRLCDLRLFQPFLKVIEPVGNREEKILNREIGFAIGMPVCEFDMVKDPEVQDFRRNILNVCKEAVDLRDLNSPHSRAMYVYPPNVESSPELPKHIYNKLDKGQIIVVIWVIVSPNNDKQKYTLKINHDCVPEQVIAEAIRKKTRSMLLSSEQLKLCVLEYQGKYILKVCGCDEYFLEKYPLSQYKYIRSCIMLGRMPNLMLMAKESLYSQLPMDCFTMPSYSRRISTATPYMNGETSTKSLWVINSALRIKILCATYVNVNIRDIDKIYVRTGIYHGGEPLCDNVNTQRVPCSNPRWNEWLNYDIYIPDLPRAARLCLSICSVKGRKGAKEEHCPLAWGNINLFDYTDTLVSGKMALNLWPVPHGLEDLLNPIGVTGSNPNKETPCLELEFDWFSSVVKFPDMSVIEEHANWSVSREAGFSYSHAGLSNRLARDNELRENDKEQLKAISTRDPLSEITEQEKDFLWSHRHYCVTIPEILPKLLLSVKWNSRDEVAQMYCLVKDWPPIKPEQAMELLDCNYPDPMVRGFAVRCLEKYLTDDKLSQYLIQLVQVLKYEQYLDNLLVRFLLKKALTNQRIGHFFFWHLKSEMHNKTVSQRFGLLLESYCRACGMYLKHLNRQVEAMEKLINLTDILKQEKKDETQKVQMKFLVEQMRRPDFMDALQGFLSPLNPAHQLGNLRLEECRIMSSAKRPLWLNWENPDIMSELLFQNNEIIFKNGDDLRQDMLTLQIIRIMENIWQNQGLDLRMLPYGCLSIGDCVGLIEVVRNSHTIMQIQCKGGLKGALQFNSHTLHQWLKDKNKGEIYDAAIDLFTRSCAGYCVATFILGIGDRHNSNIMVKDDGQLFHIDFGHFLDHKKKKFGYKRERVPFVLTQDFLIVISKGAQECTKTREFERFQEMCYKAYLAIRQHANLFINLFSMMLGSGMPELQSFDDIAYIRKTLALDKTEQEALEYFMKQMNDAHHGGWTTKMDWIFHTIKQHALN
outcome_measure: Ki (nM)

INSERT INTO measurements (input_smiles, qualifier_operator, measured_number) VALUES
  ('Cc1nc(-c2cn3c(n2)-c2ccc(-c4cnn(C)c4)cc2OCC3)n(C(C)C)n1', '=', 0.29),
  ('Cc1nc(-c2cn3c(n2)-c2ccc(-c4cnn(C5CN(CCO)C5)c4)cc2OCC3)n(C(C)C)n1', '=', 0.11),
  ('Cc1n[nH]c(-c2cn3c(n2)-c2ccc(-c4cnn(CCO)c4)cc2OCC3)n1', '=', 21.1),
  ('Cc1nc(-c2cn3c(n2)-c2ccc(-c4cnn(CCO)c4)cc2OCC3)n(C)n1', '=', 2.8),
  ('OCCn1cc(-c2ccc3c(c2)OCCn2cc(-c4ncnn4CC(F)(F)F)nc2-3)cn1', '<', 1),
  ('CC(C)n1ncnc1-c1cn2c(n1)-c1ccc(-c3cn[nH]c3)cc1OCC2', '=', 0.31),
  ('Cc1nc(-c2cn3c(n2)-c2ccc(-c4cnn(CCN5CCOCC5)c4)cc2OCC3)n(C(C)C)n1', '=', 0.3),
  ('CC(C)n1ncnc1-c1cn2c(n1)-c1ccc(-c3cnn(CCO)c3)cc1OCC2', '=', 0.17),
  ('CC(C)n1ncnc1-c1cn2c(n1)-c1ccc(-c3cnn(CC(C)(C)O)c3)cc1OCC2', '=', 0.14),
  ('Cc1nc(-c2cn3c(n2)-c2ccc(-c4cnn(C5CN(C(=O)[C@H](C)O)C5)c4)cc2OCC3)n(C(C)C)n1', '=', 0.34);

====

assay_overview: AUCtotal in nude mouse at 1 mg/kg, iv and 25 mg/kg, po
Assay type: ADME, organism-based, Plasma
experimental_setup: nude, plasma
As shown below, each of these molecules has a reported AUC value.
outcome_measure: AUC (µM·h)

INSERT INTO results (input_smiles, measured_number) VALUES
  ('Cc1nc(-c2cn3c(n2)-c2ccc(-c4cnn(C(C)(C)C(N)=O)c4)cc2OCC3)n(C(C)C)n1', 388),
  ('CC(C)n1ncnc1-c1nc2c(s1)CCOc1cc(-c3cnn(CCO)c3)ccc1-2', 112);

====

System: Mus musculus
assay_overview: Unbound AUC in nude mouse at 1 mg/kg, iv and 25 mg/kg, po
Format: ADME, organism-based
experimental_setup: in vivo
This section presents compounds with their documented fAUC values.
outcome_measure: fAUC

INSERT INTO results (input_smiles, test_system, result) VALUES
  ('Cc1nc(-c2cn3c(n2)-c2ccc(-c4cnn(C(C)(C)C(N)=O)c4)cc2OCC3)n(C(C)C)n1', 'Mus musculus', '42 µM·h'),
  ('CC(C)n1ncnc1-c1nc2c(s1)CCOc1cc(-c3cnn(CCO)c3)ccc1-2', 'Mus musculus', '0.22 µM·h'),
  ('Cc1nc(-c2cn3c(n2)-c2ccc(-c4cnn(CCO)c4)cc2OCC3)n(C(C)C)n1', 'Mus musculus', '5.2 µM·h');

====

Reported pIC50 values for a set of molecules
assay_overview: cells
experimental_setup: Homo sapiens
Description: Cytotoxicity against human MCF7-neo/Her2 cells after 3 to 4 days by CellTitre-Glo assay
pIC50: −log10 of the molar value.
outcome_measure: pIC50

INSERT INTO assay_data (input_smiles, outcome_measure, measured_number) VALUES
  ('CC(C)n1ncnc1-c1cn2c(n1)-c1ccc(-c3cnn(CC(C)(C)O)c3)cc1OCC2', 'pIC50', 7.09),
  ('Cc1nc(-c2cn3c(n2)-c2ccc(-c4cnn(C)c4)cc2OCC3)n(C(C)C)n1', 'pIC50', 6.80),
  ('Cc1nc(-c2cn3c(n2)-c2ccc(-c4cnn(CCN5CCOCC5)c4)cc2OCC3)n(C(C)C)n1', 'pIC50', 6.61),
  ('OCCn1cc(-c2ccc3c(c2)OCCn2cc(-c4ncnn4CC(F)(F)F)nc2-3)cn1', 'pIC50', 7.18);
